# key: entry, value: pIC50
- TESTED_SYSTEM: α4β1 integrin (Jurkat T-cell adhesion to IL-1 stimulated endothelial cell monolayers) (Homo sapiens, UniProt P05556+P13612)
- Construct: a T-cell line, Jurkat, known to express the α4β1 integrin
- Sequence (P13612 34-1032): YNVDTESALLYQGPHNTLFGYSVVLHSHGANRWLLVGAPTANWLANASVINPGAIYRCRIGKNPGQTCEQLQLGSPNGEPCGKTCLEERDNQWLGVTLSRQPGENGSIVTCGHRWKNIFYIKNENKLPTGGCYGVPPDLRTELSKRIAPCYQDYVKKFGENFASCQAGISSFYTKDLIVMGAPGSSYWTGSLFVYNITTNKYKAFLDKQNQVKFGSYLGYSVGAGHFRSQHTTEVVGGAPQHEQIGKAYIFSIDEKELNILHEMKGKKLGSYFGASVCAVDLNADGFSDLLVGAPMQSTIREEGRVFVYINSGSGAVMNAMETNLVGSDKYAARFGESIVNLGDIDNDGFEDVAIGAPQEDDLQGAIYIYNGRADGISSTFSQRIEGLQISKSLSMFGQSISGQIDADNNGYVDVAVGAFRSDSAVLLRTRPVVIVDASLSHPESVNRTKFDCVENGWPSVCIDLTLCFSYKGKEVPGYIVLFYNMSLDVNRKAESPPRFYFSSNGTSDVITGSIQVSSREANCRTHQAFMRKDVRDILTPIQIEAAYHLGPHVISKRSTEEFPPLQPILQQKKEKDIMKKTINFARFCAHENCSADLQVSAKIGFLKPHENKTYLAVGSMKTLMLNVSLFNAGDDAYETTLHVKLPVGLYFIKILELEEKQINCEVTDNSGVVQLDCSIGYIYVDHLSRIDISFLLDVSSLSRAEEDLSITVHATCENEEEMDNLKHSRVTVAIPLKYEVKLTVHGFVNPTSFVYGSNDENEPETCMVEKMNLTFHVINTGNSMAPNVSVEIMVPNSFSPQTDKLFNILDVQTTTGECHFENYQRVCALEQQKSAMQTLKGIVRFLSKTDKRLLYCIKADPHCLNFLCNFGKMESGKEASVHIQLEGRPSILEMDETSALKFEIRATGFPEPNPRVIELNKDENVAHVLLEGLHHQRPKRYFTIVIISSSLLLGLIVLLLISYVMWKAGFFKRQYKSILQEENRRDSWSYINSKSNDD
- Sequence (P05556 21-798): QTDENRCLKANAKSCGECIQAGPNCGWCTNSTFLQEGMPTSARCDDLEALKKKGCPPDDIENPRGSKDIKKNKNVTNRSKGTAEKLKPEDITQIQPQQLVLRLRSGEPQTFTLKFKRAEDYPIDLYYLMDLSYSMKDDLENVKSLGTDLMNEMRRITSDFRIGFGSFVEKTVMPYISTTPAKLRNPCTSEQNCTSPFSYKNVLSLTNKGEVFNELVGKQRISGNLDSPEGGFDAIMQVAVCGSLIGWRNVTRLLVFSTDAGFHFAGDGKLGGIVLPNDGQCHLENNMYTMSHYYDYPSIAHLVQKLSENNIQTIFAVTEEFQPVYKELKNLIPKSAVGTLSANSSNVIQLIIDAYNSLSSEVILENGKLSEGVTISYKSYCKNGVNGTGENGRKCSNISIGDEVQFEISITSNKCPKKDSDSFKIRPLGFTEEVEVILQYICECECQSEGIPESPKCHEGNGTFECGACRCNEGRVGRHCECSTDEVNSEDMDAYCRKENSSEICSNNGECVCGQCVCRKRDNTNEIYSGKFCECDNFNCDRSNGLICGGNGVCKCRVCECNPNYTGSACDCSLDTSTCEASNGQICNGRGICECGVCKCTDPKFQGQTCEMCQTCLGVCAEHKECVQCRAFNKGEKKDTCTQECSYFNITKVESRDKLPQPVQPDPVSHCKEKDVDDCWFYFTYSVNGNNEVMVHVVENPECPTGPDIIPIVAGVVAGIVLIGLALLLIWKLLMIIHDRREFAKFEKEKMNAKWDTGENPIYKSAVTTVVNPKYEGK
- METHOD_SUMMARY: Jurkat-endothelial cell adhesion assay (Jurkat EC)
- EXPERIMENTAL_CONTEXT: Jurkat cells on IL-1 stimulated human umbilical vein endothelial cells; read-out: JK/EC (Jurkat EC Assay IC50 value range)
pIC50: −log10 of the molar value.

In [3]: df
Out[3]:
                                   compound  obs_value
0  CC(c1ccccc1)N1C(C(=O)O)CC1C(=O)NC(Cc1ccc(NC(=O)c2c(Cl)cccc2Cl)cc1)C(=O)O (single isomer, unassigned) [Example 133]     ≤ 6.00

The compound identified as O=C(O)CCC(=O)N1CCC(C(=O)N[C@@H](Cc2ccc(NC(=O)c3c(Cl)cccc3Cl)cc2)C(=O)O)CC1 [Example 209] registered its pIC50 at ≤ 6.00

Documented pIC50 of CCOC(=O)N1CSC[C@H]1C(=O)N[C@@H](Cc1ccc(NC(=O)c2c(Cl)cccc2Cl)cc1)C(=O)OC (relative stereo) [Example 15] : ≤ 6.00

# compound O=C(O)CCC(=O)N1CCSC[C@H]1C(=O)N[C@@H](Cc1ccc(NC(=O)c2c(Cl)cccc2Cl)cc1)C(=O)O (relative stereo) [Example 99] ; its pIC50 = ≥ 6.60
